- Assay comment: yeast display, Sf9 membrane polyspecificity reagent, FACS + sequencing; frameworks hold sequencing errors
Recorded metric: polyreactivity (PSR sort gate)

Monomer sequence	polyreactivity (PSR sort gate)
QVQLVESGGGLVQAGGSLRLSCAASGSTFPFYDMGWYRQAPGKERELVAAIRSGGSTYADSVKGRFTISRDNAKNTVYLQMNSLKPEDTAVYYCAKRCPSNRYSRYRVKYDYWGQGSQVTVSS	low polyreactivity
QVQLVESGGGLVQAGGSLRLSCAASGSTFVINAMGWYRQAPGKEREFVAAISYSRGITYYADSVKGRFTISRDNAKNYVDLQMNSLKQEDTAVYYCAVSPFENRDSGYDYWGQCTQVTVSS	low polyreactivity
QVQLVESGGGLVQAGGSLRLSCAASGLIFSVYAMGWYRQAPGKERELVARISINGGSTYYADSVKGRFTISRDNAKNTVYLQMNSLKPEDTAVYYCNAVRITHYVRYYYWGQGTQVTVSS	high polyreactivity
QVQLVESGGGLVQAGGSLRLSCAASGRTFVTNAMGWYRQAPGKERELVAAISSSGGSTYYADSVKGRFTISRDNAKNTVYLQMNSLKPEDTAVYYCAVGGQTKGQYDYWGQVTQVTVSS	low polyreactivity
QVQLVESGGGLVQAGGSLRLSCAASGIIFFLYAMGWYRQAPGKERELVAAISSGGSTYYADSVKGRFTISRDNAKNTVYLQMNSLKPEDTAVYYCAVVGYASRYEKYYYWGQGTQVTVSS	high polyreactivity

Please fill in: polyreactivity (PSR sort gate) reported for QVQLVESGGCLVQAGGSLRLSCAASGYTLATYAMGWYRQAPGKERELVAAITSTGGTTYYADSVKGRFTISRDNAKNTVYLPMNSLKPEDTAVYYCNAAAALYKRYDYWGQGTQVTVSS = high polyreactivity

Please fill in: polyreactivity (PSR sort gate) reported for QVQLVESGGGIVQAGGILRLSCAASGRTLHYSAMVWYRQAPRIERELVAAISARGGRTYYADSVKGRYTISLDNAKNTVYLQMTSLKPEDTAVYYCAAAGYITGSDRYDYWGQGTLVTVSS = high polyreactivity

Please fill in: polyreactivity (PSR sort gate) reported for QVQLVESGGGLVQAGGSLRLSCAASGSTFPWYTMGWYRQAPGKERELVAAISFSGGRTYYADSVKGRFTISRDNAKNTVYLQMNSLKPEDTAVYYCAATVGAASRYYYWGQGTQVTVSS = high polyreactivity

Please fill in: polyreactivity (PSR sort gate) reported for QVQLVESGGGLVQAGGSLRLSCAASGYNFDDNAMGWYRQAPGKERELVATNYADSVKGRFTISRDNAKNTVYLQMKSLKPEDTAVYYCAKDVWQTYTDLDHWGQGTQVTVSS = low polyreactivity

Recorded values, source the nanobody polyreactivity screen of Harvey et al. (2022).
